- Procedure text: small-molecule microarray binders of probe aDKK1, primary screen, biochemical, biotinylated probe, 635/667 nm fluorescence (AID 1099);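 also: score merges 667nm spot fluorescence with signal to noise across triplicate slides; reference of the scale not given here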
- Test conditions: higher = more signal
Recorded composite z-score determines the label; the label ranges are lo = under 0.07, mid = from 0.07 up to 0.6, hi = 0.6 and over

Exam item: Band assignment needed for `CC(=O)NCCCC[C@@H]1NC(=O)[C@@H]2C[C@H](C(=O)NCc3ccc(F)cc3)[C@H](c3cccc(OCCO)c3)N2C1=O` please.
Marked response: mid

Exam item: Another compound: `COCCOC(=O)N1C(=O)[C@@]2(c3cc(C#CCC(C(=O)OC)C(=O)OC)ccc31)[C@H](C(=O)N1CCN(c3ncccn3)CC1)[C@H]1C(=O)O[C@H](c3ccccc3)[C@H](c3ccccc3)N1[C@@H]2c1ccc(O)cc1`
Marked response: mid

Exam item: Another compound: `COc1cccc([C@@H]2[C@@H](C)CC[C@H]3C(=O)N(C)[C@@H](C(C)C)C(=O)N23)c1`
Marked response: lo

Exam item: Another compound: `C[C@H]1COC(=O)[C@H](Cc2ccccc2)NC(=O)[C@@H](C)COC(=O)[C@H](Cc2ccccc2)NC1=O`
Marked response: lo

Exam item: Another compound: `NC(=O)[C@H]1[C@@H]2C(=O)O[C@@H](c3ccccc3)[C@@H](c3ccccc3)N2[C@@H](c2ccc(O)cc2)[C@]12C(=O)Nc1ccc(C#CCCO)cc12`
Marked response: lo

Exam item: Another compound: COc1ccc(NN2C(C(O)c3cc(OC)c(OC)c(OC)c3)C=CC3C(=O)N(C4CCCCC4)C(=O)C32)cc1 (centres undefined)
Marked response: hi

Exam item: Another compound: `Cc1ccc(N2C(=O)c3ccccc3[C@](C)(C(=O)NCC(C)C)[C@@H]2c2ccc(CO)cc2)nc1`
Marked response: mid

Exam item: Another compound: `CO[C@H]1COC(=O)[C@H](Cc2ccccc2)NC(=O)CC=C[C@@H](C)[C@H](OC)COC(=O)CC=C[C@@H]1C`
Marked response: mid

Exam item: Another compound: `C[C@@H]1CC[C@H]2C(=O)N3[C@@H](CC[C@@H](C)[C@@H]3c3cccc(N4CCOCC4)c3)C(=O)N2[C@H]1c1cccc(N2CCOCC2)c1`
Marked response: mid

Exam item: Another compound: `C#C[C@H](O[Si](C#Cc1ccccc1)(C(C)C)C(C)C)c1ccccc1`
Marked response: lo

Exam item: Another compound: O=C1C2C=CC(C(O)C(c3ccccc3)c3ccccc3)N(Nc3ccc([N+](=O)[O-])cc3)C2C(=O)N1c1ccccc1 (centres undefined)
Marked response: mid

Exam item: Another compound: `CO[C@@H]1COC(=O)CC=C[C@@H](C)[C@H](OC)COC(=O)CC=C[C@H]1C`
Marked response: lo

Exam item: Another compound: CN1C2C=C(c3ccc(CO)cc3)C(C3C(=O)N(C(N)=O)C(=O)C32)C1c1cccs1 (centres undefined)
Marked response: lo

Exam item: Another compound: `O=C(CS)NCCCCCCNC(=O)[C@@H]1C[C@@H]2C(=O)N[C@@H](Cc3ccccc3)C(=O)N2[C@@H]1c1ccc(O)cc1`
Marked response: lo

Exam item: Another compound: `COCCCNC(=O)[C@@]1(c2ccc([N+](=O)[O-])cc2)CC(=O)N(C2CCCCC2)[C@@H]1c1ccc(CO)cc1`
Marked response: lo

Exam item: Another compound: `COC(=O)[C@@]1(Cc2ccccc2N=[N+]=[N-])N=C(c2ccc(OCCCO)cc2)O[C@H]1c1ccccc1CN=[N+]=[N-]`
Marked response: hi

Exam item: Another compound: `NC(=O)NCC#Cc1ccc2c(c1)[C@]1(C(=O)N2)[C@H](C(=O)N2CCCCCCC2)[C@H]2C(=O)O[C@H](c3ccccc3)[C@H](c3ccccc3)N2[C@@H]1c1ccccc1OCCO`
Marked response: hi

Exam item: Another compound: N#Cc1ccc(NN2C(C(O)CCc3ccccc3)C=CC3C(=O)N(c4ccccc4)C(=O)C32)cc1 (centres undefined)
Marked response: hi

Exam item: Another compound: `[N-]=[N+]=NCc1ccccc1C[C@@]1(C(=O)O)N=C(c2ccc(OCCCO)cc2)O[C@@H]1c1ccccc1N=[N+]=[N-]`
Marked response: mid

Exam item: Another compound: `CC(C)[Si](OCCCNS(=O)(=O)c1ccc(Br)cc1)(C(C)C)C(C)C`
Marked response: mid

Exam item: Another compound: COC(=O)c1ccc(C#CC(NP(=O)(c2ccccc2)c2ccccc2)c2ccccc2)cc1 (centres undefined)
Marked response: hi

Exam item: Another compound: `COc1ccc(-c2ccccc2[C@@H]2N[C@H](C(=O)O)CC[C@H]2C)cc1`
Marked response: lo

Exam item: Another compound: C=CCC(OC(C)=O)[C@@H]1[C@@H](N(Cc2ccc(-c3ccccc3)cc2)C(=O)c2ccc(-c3ccccc3)cc2)c2cc(OCCCO)ccc2N1C(=O)Cc1ccc(OC)cc1 (some centres undefined)
Marked response: lo

Exam item: Another compound: `COC(=O)Cn1c(C(=O)N2CCCC2)cc2c1C[C@H]1CN(C(=O)c3ccccc3)[C@@](Cc3ccc(OC)cc3)(C(=O)OC)[C@@H]21`
Marked response: hi

Exam item: Another compound: `Cc1ccc(S[C@]2(C(=O)O)CC(=O)N(Cc3ccccc3)[C@@H]2c2ccc(CO)cc2)cc1`
Marked response: hi

Exam item: Another compound: `CC(C)CNC(=O)[C@@]1(C)c2ccccc2C(=O)N(Cc2ccc(OC(F)(F)F)cc2)[C@H]1c1ccc(CO)cc1`
Marked response: hi

Exam item: Another compound: `CC(=O)Nc1ccc([C@H]2[C@H](C)CC[C@H]3C(=O)N4[C@@H](CC[C@@H](C)[C@@H]4c4ccc(NC(C)=O)cc4)C(=O)N32)cc1`
Marked response: mid

Exam item: Another compound: CC(c1ccccc1)C(O)C1C=CC2C(=O)N(C)C(=O)C2N1N(c1ccccc1)c1ccccc1 (centres undefined)
Marked response: hi

Exam item: Another compound: `COc1ccc(CCN2C(=O)[C@@]3(c4ccc([N+](=O)[O-])cc4)CC(=O)N(CC45CC6CC(CC(C6)C4)C5)[C@@H]3c3ccc(CO)cc32)cc1`
Marked response: mid
